As shown below, each of these molecules has a reported Mucus loss initial test value.
System: Common garden slugs (Arion distinctus)
Assay: slug mucosal contact test (mucus production and body weight loss)
Format: in vivo
Conditions: 30-min contact, 60 mg test substance, % of body weight, mean n = 6, initial treatment
assay.readout: Mucus loss initial test (% w/w)

molecule: CCCCCCCC=O
test.system: Common garden slugs (Arion distinctus)
result.value: 3.82
//
molecule: CCCCCCC=O
test.system: Common garden slugs (Arion distinctus)
result.value: 2.77
//
molecule: CC1OC(C)OC(C)OC(C)O1 (stereo not shown) [Metaldehyde, reference compound]
test.system: Common garden slugs (Arion distinctus)
result.value: 5.55
//
molecule: CCCCCCCCCC=O
test.system: Common garden slugs (Arion distinctus)
result.value: 3.28
